B1: PRAME (parent)
chain: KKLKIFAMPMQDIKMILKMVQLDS

Variants of: B1
Experimental Details: protein stability index of a GFP-peptide fusion (GPS, HEK-293T) (PSI 1-6); higher = more stable;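 note: lentivirally expressed fusions sorted by FACS into six bins by GFP to DsRed ratio, PSI derived from sequencing read proportions per bin multiplied by bin number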
Measurement Parameters: c terminus: a fixed tail appended
This section presents variants with their documented protein stability index values.
Write the number on its own, no unit after it.

Example entries begin here.
L17W    2.06
K2H    3.33
A7H    2.52

Now examine the next entry.
Value of measured protein stability index for the entry `S24Q` : 2.02

Attribution: the supplement of paper PMC10567573
